- Assay Comment: The drug is tested on Bacteroides xylanisolvens strain: HM 722 for biotransformation under anaerobic condition. The drug concentrations were measured over 6 timepoints collected between 0 and 12 hours of incubation by liquid-chromatography-coupled mass spectrometry (LC–MS)
- Type: ADME
- Set-up: dose 5 uM, timepoint 0, 1.5, 3, 6, 9, 12 hours
- Details: 5 µM

Molecule: CCCC1O[C@@H]2C[C@H]3[C@@H]4CCC5=CC(=O)C=C[C@]5(C)[C@H]4[C@@H](O)C[C@]3(C)[C@]2(C(=O)CO)O1 (some centres undefined) [BUDESONIDE]
Bacterial Biotransformation: Compound NOT metabolized
--
Molecule: CCOC(=O)C1=C(COCCN)NC(C)=C(C(=O)OC)C1c1ccccc1Cl (centres undefined)
Bacterial Biotransformation: Compound NOT metabolized
--
Molecule: CCOc1nc2cccc(C(=O)O)c2n1Cc1ccc(-c2ccccc2-c2nnn[nH]2)cc1
Bacterial Biotransformation: Compound NOT metabolized
--
Molecule: C[C@@H](NCCCc1cccc(C(F)(F)F)c1)c1cccc2ccccc12
Bacterial Biotransformation: Compound NOT metabolized
